// data source = paper PMC6245477

Target: CCR5 (Homo sapiens, UniProt P51681)
Sequence (P51681 whole entry): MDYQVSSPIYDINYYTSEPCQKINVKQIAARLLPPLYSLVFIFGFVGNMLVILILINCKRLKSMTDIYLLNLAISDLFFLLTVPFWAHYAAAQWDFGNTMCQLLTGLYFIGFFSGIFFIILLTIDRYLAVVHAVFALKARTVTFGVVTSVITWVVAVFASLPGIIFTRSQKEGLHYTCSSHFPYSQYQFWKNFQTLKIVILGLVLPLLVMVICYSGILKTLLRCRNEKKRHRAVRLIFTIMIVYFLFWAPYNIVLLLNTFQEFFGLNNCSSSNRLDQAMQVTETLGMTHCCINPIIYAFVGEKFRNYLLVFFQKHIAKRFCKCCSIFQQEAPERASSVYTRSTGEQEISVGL
Assay: Calcium mobilization assay (RANTES-induced, Fluo-4 AM)
Details: CHO cells stably expressing CCR5 and Gα16; RANTES 30 nM; read-out: IC50 (antagonistic activity against CCR5)
Protocol: For the primary assay, the percent inhibitory rates of the compounds 1, 2 and 2a-l at 1 μM were measured. Except compounds 2a and 2c, the other twelve compounds were remarkably antagonist of CCR5 activity. Therefore, we determined their IC50 values (Table 1). […]
pIC50: −log10 of the molar value.
// reported pIC50 per item

line_notation=Cc1ccc(S(=O)(=O)N[C@@H](CCN2CCN(c3ccnc4cc(Cl)ccc34)CC2)c2ccccc2)cc1 assay_endpoint=pIC50 observed_measurement="< 5.00"
line_notation=O=C1CCC(C(=O)N[C@@H](CCN2CCN(c3ccnc4cc(Cl)ccc34)CC2)c2ccccc2)CC1 assay_endpoint=pIC50 observed_measurement="< 6.00"
line_notation=O=C(Cc1ccccc1)N[C@@H](CCN1CCN(c2ccnc3cc(Cl)ccc23)CC1)c1ccccc1 assay_endpoint=pIC50 observed_measurement="< 5.00"

Value lookup for pIC50; key = O=C(N[C@@H](CCN1CCN(c2ncnc3[nH]cnc23)CC1)c1ccccc1)C1CCC(F)(F)CC1
< 5.00

Using the record for O=C(C1CCC(F)(F)CC1)N1CCN(c2ccnc3cc(Cl)ccc23)CC1 , report its pIC50.
< 6.00

----------
Quick reference for melting point among some molecules

Use these answered entries as a reference point.
molecule="O=C1CCC(C(=O)N[C@@H](CCN2CCN(c3ccnc4cc(Cl)ccc34)CC2)c2ccccc2)CC1 [Compound 2d]" assay_endpoint="melting point" observed_measurement="56 to 59 °C"
molecule="Cc1ccc(S(=O)(=O)N[C@@H](CCN2CCN(c3ccnc4cc(Cl)ccc34)CC2)c2ccccc2)cc1 [Compound 2f]" assay_endpoint="melting point" observed_measurement="132 to 136 °C"
molecule="O=C(N[C@@H](CCN1CCN(c2ccnc3cc(Cl)ccc23)CC1)c1ccccc1)C1CCCCC1 [Compound 2b]" assay_endpoint="melting point" observed_measurement="153 to 158 °C"
molecule="O=C(N[C@@H](CCN1CCN(c2ccc3ccccc3n2)CC1)c1ccccc1)C1CCC(F)(F)CC1 [Compound 2j]" assay_endpoint="melting point" observed_measurement="50 to 53 °C"
molecule="O=C(N[C@@H](CCN1CCN(c2ccnc3cc(Cl)ccc23)CC1)c1ccccc1)c1ccc(F)cc1 [Compound 2a]" assay_endpoint="melting point" observed_measurement="77 to 79 °C"

Let us move to another entry and its melting point.
May I ask what melting point has been recorded for O=C(Cc1ccccc1)N[C@@H](CCN1CCN(c2ccnc3cc(Cl)ccc23)CC1)c1ccccc1 [Compound 2e] ?
69 to 72 °C
